Origin of measurements: patent US20110182904A1

Target: T1, human bone morphogenic protein 2 (BMP2) (human, UniProt P12643 283-396, Disulfide-linked homodimer of this chain (non-reduced band of about 36 kDa, monomers of 17-18 kDa); one copy is given.)
T1 construct: Bought recombinant human BMP2 (R&D Systems or Medtronic); also called recombinant human BMP2
T1 sequence (P12643 283-396 limits assumed): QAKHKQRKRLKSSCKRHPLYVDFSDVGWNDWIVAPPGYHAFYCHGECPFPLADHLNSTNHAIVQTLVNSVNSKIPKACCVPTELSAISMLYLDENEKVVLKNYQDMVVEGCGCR
Assay: SPR (Biacore); mAb captured via anti-human Fc, BMP flowed at 10 nM
Procedure: The antigen-antibody association kinetics was followed for 2 minutes and the dissociation kinetics was followed for 8 minutes. The association and dissociation curves were fit to a 1:1 Langmuir binding model using BIAevaluation software (Biacore, AB).
# key: entry, value: log10 Kd
readout name: log10 Kd (log10 of the value in pM)

binder="6H4 human monoclonal antibody (antibody, V domains shown, Human IgG from a HuMAb/KM mouse hybridoma) VH: QVHLQQWGAGLLKPSETLSLTCAVYGGSFSGYYWSWIRQPPGKGLEWIGEINHSGSTNYNPSLKSRVTISVDTSKNQFSLKLSSVTAADTAVYYCAREYYYGSESEYFQHWGQGTLVTVSS VL: EIVLTQSPATLSLSPGERATLSCRASQSVSSYLAWYQQKPGQAPRLLIYDASNRATGIPARFSGSGSGTDFTLTISSLEPEDFAVYYCQQRSNWPHTFGQGTKLEIK" readout_name="log10 Kd" measured=2.00
binder="33F7 human monoclonal antibody (antibody, V domains shown, Human IgG from a HuMAb/KM mouse hybridoma) VH: QVQLVQSGAEVKKPGSSVKVSCKASGGTFSSYAINWVRQAPGQGLEWMGRLIPILGIANYAQKFQGRVTITADKSTSTAYMELSSLRSEDTAVYYCARGKDIWGQGTMVTVSS VL: EIVLTQSPGTLSLSPGERVTLSCRASQSVSSNYLAWYQQKPGQAPRLLIKGASSRATGIPDRFSGSGSGTDFTLTISRLEPEDFAVYYCQQYGSSPCTFGQGTKLEIK" readout_name="log10 Kd" measured=2.08
binder="7D6 human monoclonal antibody (antibody, V domains shown, Human IgG from a HuMAb/KM mouse hybridoma) VH: QVQLVQSGAEVKKPGSSVKVSCKASGGTFSSYAISWVRQAPGQGLEWMGRIIPILGIVNYAQKFQGRVTITADKSTSTAYMELSSLRSEDTAVYYCARGKDIWGQGTMVTVSS VL: EIVLTQSPGTLSLSPGERATLSCRASQIVISTYLAWYQQKPGQAPRLLIYGASSRATGIPDRFSGSGSGTDFTLTISRLEPEDFAVYYCQQYGSSPCTFGQGTKLEIK" readout_name="log10 Kd" measured=2.45
binder="12E3 human monoclonal antibody (antibody, V domains shown, Human IgG from a HuMAb/KM mouse hybridoma) VH: QVQLVESGGGVVQPGRSLRLSCAASGFTFSSYGMHWVRQAPGKGLEWVAVIWDDGRKKYYADSVKGRFTISRDNSKNTLYLQMNSLRAEDTAVYYCAREPAGVWGMDVWGQGTTVTVSS VL: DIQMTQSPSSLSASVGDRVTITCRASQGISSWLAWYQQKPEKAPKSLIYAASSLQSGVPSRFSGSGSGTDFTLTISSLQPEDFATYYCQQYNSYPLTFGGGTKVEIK" readout_name="log10 Kd" measured=1.30
binder="16B7 human monoclonal antibody (antibody, V domains shown, Human IgG from a HuMAb/KM mouse hybridoma) VH: QVQLVESGGGVVQPGRSLRLSCAASGFTFSNYGIHWVRQAPGKGLEWVAVIWYDGSHKYYADSMKGRFTISRDNSKNTLDLQMNSLRAEDTAVYYCARGSSSWYFDLWGRGTLVTVSS VL: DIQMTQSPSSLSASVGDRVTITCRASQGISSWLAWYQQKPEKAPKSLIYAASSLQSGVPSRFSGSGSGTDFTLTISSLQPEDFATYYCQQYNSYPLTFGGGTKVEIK" readout_name="log10 Kd" measured=1.90
binder="10F6 human monoclonal antibody (antibody, V domains shown, Human IgG from a HuMAb/KM mouse hybridoma) VH: QVQLVESGGGVVQPGRSLRLSCAASGFTFRSYGIHWVRQAPGKGLEWVAVIWYDGSHKYYADSVKGRFTISRDNSKNTLDLQMNSLRAEDTAVYYCVRGSSNWYFDYWGQGTLVTVSS VL: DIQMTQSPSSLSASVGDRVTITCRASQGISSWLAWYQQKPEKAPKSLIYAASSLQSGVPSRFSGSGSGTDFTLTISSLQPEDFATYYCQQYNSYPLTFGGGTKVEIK" readout_name="log10 Kd" measured=2.28
